biological target: Glyceraldehyde-3-phosphate dehydrogenase, glycosomal (Trypanosoma cruzi); experiment: Inhibition of Trypanosoma cruzi recombinant glycosomal GAPDH expressed in Escherichia coli using GAPDH and D-glyceraldehyde-3-phosphate
Sequence (P22513 whole entry): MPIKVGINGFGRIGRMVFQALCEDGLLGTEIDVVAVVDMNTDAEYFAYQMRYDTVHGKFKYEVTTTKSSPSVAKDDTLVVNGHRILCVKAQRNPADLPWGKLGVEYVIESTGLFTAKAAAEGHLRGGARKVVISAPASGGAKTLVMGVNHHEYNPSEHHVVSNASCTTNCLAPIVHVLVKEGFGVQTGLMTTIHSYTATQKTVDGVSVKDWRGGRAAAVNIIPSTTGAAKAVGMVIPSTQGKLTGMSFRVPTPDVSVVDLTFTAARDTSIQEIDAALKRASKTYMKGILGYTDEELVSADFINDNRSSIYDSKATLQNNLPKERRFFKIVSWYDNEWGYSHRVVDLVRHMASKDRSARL
// IC50 lookup, one value per entry
MEASUREMENT NAME: IC50

MOLECULE: CCOC(=O)c1c(CCCCCCOC2CCCCO2)cccc1OC (stereo not given)
TESTED TARGET: Glyceraldehyde-3-phosphate dehydrogenase, glycosomal (Trypanosoma cruzi)
MEASUREMENT NAME: IC50
RESULT: > 250 µM
--
MOLECULE: C=CC/C=C\C/C=C\CCCCCCCc1cccc(O)c1C(=O)O [ANACARDIC ACID]
TESTED TARGET: Glyceraldehyde-3-phosphate dehydrogenase, glycosomal (Trypanosoma cruzi)
MEASUREMENT NAME: IC50
RESULT: 28 µM
--
MOLECULE: CCCCCCCCCCCCc1cccc(O)c1C(=O)O
TESTED TARGET: Glyceraldehyde-3-phosphate dehydrogenase, glycosomal (Trypanosoma cruzi)
MEASUREMENT NAME: IC50
RESULT: 55 µM
--
MOLECULE: CCCCCCCC=Cc1cccc(OC)c1C(=O)OCC (mixture of isomers)
TESTED TARGET: Glyceraldehyde-3-phosphate dehydrogenase, glycosomal (Trypanosoma cruzi)
MEASUREMENT NAME: IC50
RESULT: > 300 µM
--
MOLECULE: CCOC(=O)c1c(O)cccc1CCCCCCO
TESTED TARGET: Glyceraldehyde-3-phosphate dehydrogenase, glycosomal (Trypanosoma cruzi)
MEASUREMENT NAME: IC50
RESULT: > 250 µM
--
MOLECULE: CCOC(=O)c1c(O)cccc1CCCCCCCCO
TESTED TARGET: Glyceraldehyde-3-phosphate dehydrogenase, glycosomal (Trypanosoma cruzi)
MEASUREMENT NAME: IC50
RESULT: > 250 µM
--
MOLECULE: CCOC(=O)c1c(CCCCCCCCCCOC2CCCCO2)cccc1OC (stereo not given)
TESTED TARGET: Glyceraldehyde-3-phosphate dehydrogenase, glycosomal (Trypanosoma cruzi)
MEASUREMENT NAME: IC50
RESULT: > 250 µM
--
MOLECULE: CCOC(=O)c1c(CCCCCCCCOC2CCCCO2)cccc1OC (stereo not given)
TESTED TARGET: Glyceraldehyde-3-phosphate dehydrogenase, glycosomal (Trypanosoma cruzi)
MEASUREMENT NAME: IC50
RESULT: > 250 µM
--
MOLECULE: CCCCCCCCCc1cccc(OC)c1C(=O)OCC
TESTED TARGET: Glyceraldehyde-3-phosphate dehydrogenase, glycosomal (Trypanosoma cruzi)
MEASUREMENT NAME: IC50
RESULT: > 250 µM
--
MOLECULE: CCCCCCCCCc1cccc(O)c1C(=O)O
TESTED TARGET: Glyceraldehyde-3-phosphate dehydrogenase, glycosomal (Trypanosoma cruzi)
MEASUREMENT NAME: IC50
RESULT: 200 µM
